Exercise: for every item that follows, state its recorded % UTC (Yap1 mRNA).
# System: Yap1 mRNA
# Assay name: Dose-dependent inhibition of human Yap1 in SNU-449 cells (Example 9, RTS36584)
# Type: cell-based
# Assay conditions: 2000.00 nM, free uptake, approximately 48 hours
Strand notation (5' to 3'): a small letter for the sugar, then the base; units joined by * are phosphorothioate-linked, units joined directly phosphodiester-linked; [ ] holds rarer units or linkages, { } end groups; capitals alone tell only the bases. e = 2'-O-(2-methoxyethyl) (MOE); k = constrained ethyl (cEt); [5mC] = 5-methylcytosine; d = 2'-deoxy (DNA); m = 2'-O-methyl
Provide the measurement as a number trailed by its unit.

Sample records with % UTC (Yap1 mRNA):
1) 1198295 (kT*kA*kG*dA*dG*dT*dA*dT*dG*dT*dG*dG*k[5mC]*eA*kA*eT; antisense) [compound 1198295]
8 % UTC
2) 1197223 (kT*kA*kA*dG*dT*dA*dA*dG*dG*dT*dT*dT*d[5mC]*k[5mC]*k[5mC]*kA; antisense) [compound 1197223]
8 % UTC

Kindly review the next substance as well.
Task: Request the reported % UTC (Yap1 mRNA) associated with 1197235 (kA*kT*kT*dA*mG*dA*dG*dT*dA*dT*dG*dT*dG*kG*k[5mC]*kA; antisense) [compound 1197235]
Result: 5 % UTC

====

# System: Yap1 mRNA
# Assay name: Dose-dependent inhibition of human Yap1 in A-431 cells (Example 7, 10,000 cells per well, RTS36584)
# Type: cell-based
# Assay conditions: Table 59, 62.5 nM, free uptake, A-431 cells 10,000 cells per well, 48 hours
Strand notation (5' to 3'): a small letter for the sugar, then the base; units joined by * are phosphorothioate-linked, units joined directly phosphodiester-linked; [ ] holds rarer units or linkages, { } end groups; capitals alone tell only the bases. k = constrained ethyl (cEt); [5mC] = 5-methylcytosine; d = 2'-deoxy (DNA)
Experimental endpoint: Yap1 mRNA, % UTC (% UTC)
One number for each entry, in % UTC.

Sample records with Yap1 mRNA, % UTC:
1. 958737 (kG*kG*kA*dA*dT*dA*d[5mC]*dA*dA*dG*d[5mC]*d[5mC]*d[5mC]*kG*kA*kG; antisense) [compound 958737]
92
2. 958798 (kT*kG*k[5mC]*dA*dG*dT*dA*dT*dA*dA*dT*dA*dT*k[5mC]*k[5mC]*kT; antisense) [compound 958798]
61

Task: Request the reported Yap1 mRNA, % UTC associated with 958507 (kG*kA*kG*d[5mC]*dA*dG*dA*dT*dA*dA*dT*d[5mC]*dG*kA*kG*kA; antisense) [compound 958507]
Result: 69

====

Exercise: for every item that follows, state its recorded Yap1 mRNA, % UTC.
# System: Yap1 mRNA
# Assay name: Dose-dependent inhibition of human Yap1 in A-431 cells (Example 6, 5,000 cells per well, RTS4814)
# Type: cell-based
# Assay conditions: Table 55; 4000 nM, free uptake, A-431 cells 5,000 cells per well, 48 hours, RTS4814
Strand notation (5' to 3'): a small letter for the sugar, then the base; units joined by * are phosphorothioate-linked, units joined directly phosphodiester-linked; [ ] holds rarer units or linkages, { } end groups; capitals alone tell only the bases. k = constrained ethyl (cEt); [5mC] = 5-methylcytosine; d = 2'-deoxy (DNA)
Give bare numbers, in % UTC.

Sample records with Yap1 mRNA, % UTC:
1) 716503 (antisense kT*kT*kA*dT*dT*dA*dT*dG*dA*dG*dT*dG*dA*kT*k[5mC]*kA) [compound 716503]
64
2) 716479 (antisense kG*kA*kA*d[5mC]*dA*dA*dT*d[5mC]*dT*dT*dG*dA*dA*kG*kG*k[5mC]) [compound 716479]
57

Kindly review the next substance as well.
Task: Request the reported Yap1 mRNA, % UTC associated with 716381 (kT*kG*kT*d[5mC]*dT*dG*dA*dT*d[5mC]*dG*dA*dT*dG*kT*kG*kA; antisense) [compound 716381]
Result: 44

====

# Tested on: Yap1 mRNA
# Assay name: Antisense inhibition of human Yap1 in A-431 cells by cEt gapmers, single dose (Example 2, RTS4814)
# Type: cell-based
# Assay conditions: Table 18; A-431 cells, 5,000 cells per well, free uptake, 2,000 nM modified oligonucleotide, approx. 48 hours; RTS4814; normalized to RIBOGREEN; Yap1 mRNA as percent of untreated control
Strand notation (5' to 3'): a small letter for the sugar, then the base; units joined by * are phosphorothioate-linked, units joined directly phosphodiester-linked; [ ] holds rarer units or linkages, { } end groups; capitals alone tell only the bases. k = constrained ethyl (cEt); [5mC] = 5-methylcytosine; d = 2'-deoxy (DNA)
Exercise: for every item that follows, state its recorded YAP1 (% UTC).
Give bare numbers, in % UTC.

Sample records with YAP1 (% UTC):
1. 1074724 (antisense kG*kG*kG*dT*dA*dA*dA*dG*dG*dA*dA*dG*dA*kT*k[5mC]*kT) [Compound 1074724]
22
2. 1075396 (kA*kT*kT*dA*dT*d[5mC]*dG*d[5mC]*dA*d[5mC]*dA*dT*dA*k[5mC]*kA*kT; antisense) [Compound 1075396]
89
3. 1074212 (antisense kG*k[5mC]*kT*dT*d[5mC]*d[5mC]*dG*dG*dA*dG*d[5mC]*d[5mC]*dT*k[5mC]*kA*kT) [Compound 1074212]
53
4. 1076324 (kG*k[5mC]*kT*d[5mC]*dA*dA*dA*dA*dG*dG*dT*d[5mC]*dT*k[5mC]*kT*k[5mC]; antisense) [Compound 1076324]
13
5. 1075300 (k[5mC]*kG*kT*dG*dA*dA*dA*dA*dG*dA*dA*dA*dG*kG*k[5mC]*k[5mC]; antisense) [Compound 1075300]
98

Kindly review the next substance as well.
Task: Recorded YAP1 (% UTC) for 1074244 (antisense k[5mC]*kT*k[5mC]*dT*dG*dA*d[5mC]*d[5mC]*dA*dG*dA*dA*dG*kA*kT*kG) [Compound 1074244] with Yap1 mRNA, please?
Result: 95

====

# Test system: Yap1 mRNA
# Assay name: Antisense inhibition of human Yap1 in SNU-449 cells by modified oligonucleotides, single dose (Example 5, RTS36584)
# Assay type: cell-based
# Assay conditions: Table 42 (separate experiment); SNU-449 cells, 10,000 cells per well, free uptake, 2,000 nM modified oligonucleotide, approximately 48 hours; RTS36584; normalized to RIBOGREEN; Yap1 mRNA relative to untreated control cells
# Method: Modified oligonucleotides with additional chemistry modifications were designed to target a Yap1 nucleic acid and were tested for their effect on Yap1 mRNA level in SNU-449 cells. […] After a treatment period of approximately 48 hours, RNA was isolated from the cells and Yap1 mRNA levels were measured by quantitative real-time RTPCR. […] Yap1 mRNA levels were normalized to total RNA content, as measured by RIBOGREEN®. […]
Strand notation (5' to 3'): a small letter for the sugar, then the base; units joined by * are phosphorothioate-linked, units joined directly phosphodiester-linked; [ ] holds rarer units or linkages, { } end groups; capitals alone tell only the bases. e = 2'-O-(2-methoxyethyl) (MOE); k = constrained ethyl (cEt); [5mC] = 5-methylcytosine; d = 2'-deoxy (DNA)
Exercise: for every item that follows, state its recorded YAP1 (% UTC).
Numbers only, in % UTC.

1) 1198215 (kT*k[5mC]*dT*dA*dT*dA*dT*dT*dA*dG*dA*eG*eT*eA*kT*kG; antisense) [Compound 1198215]
120
2) 1198198 (kT*kG*dT*d[5mC]*dT*d[5mC]*dA*dT*dG*d[5mC]*d[5mC]*eT*eT*eA*kT*kA; antisense) [Compound 1198198]
29

Kindly review the next substance as well.
Task: Request the reported YAP1 (% UTC) associated with 1198648 (kA*kG*dG*dT*dA*dT*dA*dA*d[5mC]*dT*dG*dG*kG*e[5mC]*kA*eA) [Compound 1198648]
Result: 43

====

# System: Yap1 mRNA
# Assay name: Dose-dependent inhibition of human Yap1 in A-431 cells (Example 8, 10,000 cells per well, RTS4814)
# Format: cell-based
# Assay conditions: 125.0 nM; A-431 cells, 10,000 cells per well, free uptake, approximately 48 hours, RTS4814
Strand notation (5' to 3'): a small letter for the sugar, then the base; units joined by * are phosphorothioate-linked, units joined directly phosphodiester-linked; [ ] holds rarer units or linkages, { } end groups; capitals alone tell only the bases. k = constrained ethyl (cEt); [5mC] = 5-methylcytosine; d = 2'-deoxy (DNA)
Experimental endpoint: Yap1 mRNA, % UTC (% UTC)
Numbers only, in % UTC.

1. 1076481 (k[5mC]*kT*kA*dA*dG*dT*dA*dA*dG*dG*dT*dT*dT*k[5mC]*k[5mC]*k[5mC]) [compound 1076481]
4
2. 1076256 (kT*kT*kA*dT*dT*dT*dA*dG*dG*d[5mC]*d[5mC]*d[5mC]*d[5mC]*kA*kT*kA; antisense) [compound 1076256]
33
3. 1076295 (kG*kT*kA*dT*dA*dT*dT*dA*dG*dT*dG*d[5mC]*d[5mC]*k[5mC]*k[5mC]*k[5mC]; antisense) [compound 1076295]
17
4. 1074535 (kG*kT*kA*dA*dT*dA*dG*d[5mC]*dT*d[5mC]*dT*dT*dT*k[5mC]*kT*kA; antisense) [compound 1074535]
21
5. 1075816 (kT*kA*kG*dT*dA*dT*dA*dA*dA*dG*d[5mC]*dA*dG*kG*kG*k[5mC]; antisense) [compound 1075816]
29

Kindly review the next substance as well.
Task: Request the reported Yap1 mRNA, % UTC associated with 1076293 (kG*k[5mC]*kT*dT*dA*dT*dT*dA*dT*dT*dG*dA*dG*kT*kT*kA; antisense) [compound 1076293]
Result: 18
